Data credit: ChEMBL document CHEMBL4002587

Target: Prothrombin (Homo sapiens)
Assay: Inhibition of human thrombin preincubated for 10 mins followed by Ac-FVR-AMC substrate addition measured every 20s for 10 mins by fluorescence assay
Label criterion met when IC50 is strictly below 2 nM; otherwise label criterion not met.

See these solved cases before continuing.
stdin: Would you kindly verify if IC50 of Cc1cc(N(CCC(=O)O)C(=O)c2ccc3c(c2)nc(CNc2ccc(C(=N)N)cc2F)n3C)ccc1F is strictly less than 2 nM?
stdout: criterion not met

stdin: Check Cn1c(CNc2ccc(C(=N)N)cc2F)nc2cc(C(=O)N(CCC(=O)O)c3ccc(F)c(F)c3)ccc21 too.
stdout: criterion not met

stdin: Check Cc1cc(C)cc(N(CCC(=O)O)C(=O)c2ccc3c(c2)nc(CNc2ccc(C(=N)N)cc2F)n3C)c1 too.
stdout: criterion not met

stdin: Check Cc1cccc(N(CCC(=O)O)C(=O)c2ccc3c(c2)nc(CNc2ccc(C(=N)N)cc2F)n3C)c1 too.
stdout: criterion not met

stdin: Check Cc1cccc(N(CCC(=O)O)C(=O)c2ccc3c(c2)nc(CNc2ccc(C(=N)N)cc2F)n3C)c1C too.
stdout: criterion met

Attention now shifts to the item below.
stdin: Would you kindly verify if IC50 of Cn1c(CNc2ccc(C(=N)N)cc2F)nc2cc(C(=O)N(CCC(=O)O)c3cc(F)cc(F)c3)ccc21 is strictly less than 2 nM?
stdout: criterion met

---

Assay: Oral bioavailability in human at 10 to 400 mg administered as single dose measured after 24 hrs
Type: ADME, organism-based
Conditions: in vivo
endpoint-name: bioavailability (%)
Reply with just the number (in %).

stdin: For the compound shown here, Cn1c(CNc2ccc(C(=N)N)cc2)nc2cc(C(=O)N(CCC(=O)O)c3ccccn3)ccc21 , give the reported bioavailability.
stdout: 6.5
